Reference source: ChEMBL document CHEMBL4392845

# target-desc: Estrogen receptor (Homo sapiens)
Rule: IC50 below 80 nM gives Satisfied. Equal to or above 80 nM gives Not satisfied.

Request: Identify whether the compound Cc1cc(Cc2ccc(O)c(C)c2)ccc1O records IC50 below 80 nM.
Response: Not satisfied

---

# target-desc: Estrogen receptor (Homo sapiens, UniProt P03372)
# Sequence (P03372 whole entry): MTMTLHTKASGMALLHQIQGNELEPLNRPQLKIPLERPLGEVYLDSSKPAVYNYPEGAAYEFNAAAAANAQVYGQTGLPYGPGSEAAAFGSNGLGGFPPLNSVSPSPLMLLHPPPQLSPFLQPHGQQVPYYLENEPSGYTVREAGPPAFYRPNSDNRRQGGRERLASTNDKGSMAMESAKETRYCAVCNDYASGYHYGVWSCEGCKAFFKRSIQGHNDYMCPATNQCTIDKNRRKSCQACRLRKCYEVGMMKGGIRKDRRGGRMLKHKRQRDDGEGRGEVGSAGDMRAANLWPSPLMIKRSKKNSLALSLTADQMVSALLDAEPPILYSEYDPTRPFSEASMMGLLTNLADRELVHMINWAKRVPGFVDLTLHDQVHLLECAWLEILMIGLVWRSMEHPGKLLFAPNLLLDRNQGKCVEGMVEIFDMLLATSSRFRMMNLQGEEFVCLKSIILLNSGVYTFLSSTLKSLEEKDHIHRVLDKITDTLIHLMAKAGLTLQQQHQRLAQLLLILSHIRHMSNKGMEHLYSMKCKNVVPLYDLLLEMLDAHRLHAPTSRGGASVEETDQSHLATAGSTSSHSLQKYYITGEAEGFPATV
Catalogue of molecules with associated pIC50
# pIC50: negative log10 of molar concentration; output just the value

Given item CCCC(CCC)(c1ccc(O)c(C)c1)c1ccc(NC(C)=O)c(C)c1 , the value recorded as its pIC50 is 6.67

Given item CCCC(CCC)(c1ccc(O)c(C)c1)c1ccc(/C=C/C(=O)OCC)c(C)c1 , the value recorded as its pIC50 is 6.25

Given item CCCC(CCC)(c1ccc(O)c(C)c1)c1ccc(OCC(=O)NC)c(C)c1 , the value recorded as its pIC50 is 7.51

Given item CCCC(CCC)(c1ccc(O)c(C)c1)c1ccc(N(C)C)c(C)c1 , the value recorded as its pIC50 is 6.67

Given item CCCC(CCC)(c1ccc(O)c(C)c1)c1ccc(OCC(=O)OCC)c(C)c1 , the value recorded as its pIC50 is 7.36

Given item CCC(=C(c1ccc(O)cc1)c1ccc(O)cc1)c1ccccc1 , the value recorded as its pIC50 is 8.48

Given item CCCC(CCC)(c1ccc(O)c(C)c1)c1ccc(OCC(=O)N(C)C)c(C)c1 , the value recorded as its pIC50 is 7.03

Given item CCCC(CCC)(c1ccc(O)c(C)c1)c1ccc(OCCC(C)C)c(C)c1 , the value recorded as its pIC50 is 5.92
